These data points were gathered from patent US20130090334A1.

Tested on: human whole blood
Assay: Human Whole Blood (HWB) Assay, inhibition of T cell IL-2 production
Format: cell-based
Conditions: IL-2 in plasma, human whole blood stimulated with 10 μM Thapsigargin overnight, AlphaLISA
Protocol: Human Whole Blood (HWB) Assay Inhibition of T cell IL-2 production CRAC compounds were tested in human whole blood from normal donors. 200 μl of human whole blood was aliquoted into each well of a round bottom 96 well plate. […] IL-2 concentrations in the plasma were determined by AlphaLISA IL-2 assay (Perkin Elmer). […]
pIC50: −log10 of the molar value.
ENDPOINT_LABEL: pIC50

A selection of reference data follows.
CCn1nc(-c2cnccn2)cc1-c1cnc2c(c1)OCC(c1c(F)cccc1F)N2 (stereo not drawn)    5.62
Cc1sc(-c2ccncc2)nc1-c1cnc2c(c1)OCC(c1c(F)cccc1F)N2 (stereo not drawn)    5.34
Cc1ccc(-c2ncco2)cc1-c1cnc2c(c1)OCC(c1c(F)cccc1F)N2 (stereo not drawn)    5.09

A. Cc1sc(-c2ccccn2)nc1-c1cnc2c(c1)OCC(c1c(F)cccc1F)N2 (stereo not drawn)
B. CCn1nc(-c2cccnc2)cc1-c1cnc2c(c1)OCC(c1c(F)cccc1F)N2 (stereo not drawn)
C. CCc1sc(-c2cccnc2)nc1-c1cnc2c(c1)OCC(c1c(F)cccc1F)N2 (stereo not drawn)
Input: Arrange the 3 molecules by rising pIC50, starting with the smallest. Returns: the labels listed in the requested order.
Output: A, B, C
